targetUnderTest: A1 receptors (Rattus norvegicus)
assayOverview: biochemical
Format: binding
conditionDetails: Table 7; [3H]PIA, rat brain membranes; read-out: Ki (rA1)
readoutLabel: Ki (µM)
A number alone suffices; assume µM.

These solved cases illustrate the format of a correct answer.
compound: COc1cc2c(c(O)c1OC)c(=O)c1ccccc1n2C [Compound 51, reference compound]
readoutUnits: µM
Ki: 12.7
--
compound: CCn1c2c(c3cc4c(cc3c1=O)OCO4)C(=O)CCC2 [Compound 46, reference compound]
readoutUnits: µM
Ki: 7.59

Now for another entry.
Prompt: May I ask what Ki has been recorded for O=c1cc(-c2ccccc2)oc2ccc3ccccc3c12 [Compound 44, β-naphthoflavone, reference compound] ?
Completion: 8.8

###

Each record here notes measured pKi.
targetUnderTest: A2a receptors (Rattus norvegicus)
Construct: Displacement of specific [^3 H]; from tissue; host or cells: rat striatal membranes
Sequence (P30543 whole entry): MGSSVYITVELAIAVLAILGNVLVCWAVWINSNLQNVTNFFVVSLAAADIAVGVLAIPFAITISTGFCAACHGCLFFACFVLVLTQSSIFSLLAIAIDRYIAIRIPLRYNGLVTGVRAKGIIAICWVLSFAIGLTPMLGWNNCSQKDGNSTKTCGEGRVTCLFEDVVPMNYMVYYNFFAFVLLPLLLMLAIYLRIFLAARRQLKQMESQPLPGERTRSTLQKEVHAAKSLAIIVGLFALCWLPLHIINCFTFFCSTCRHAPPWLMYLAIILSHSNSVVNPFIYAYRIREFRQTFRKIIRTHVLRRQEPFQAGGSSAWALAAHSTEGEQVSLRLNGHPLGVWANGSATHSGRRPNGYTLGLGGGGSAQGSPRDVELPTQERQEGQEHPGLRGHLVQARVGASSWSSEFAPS
assayOverview: radioligand binding, displacement of specific [3H]CGS 21680 binding in rat striatal membranes
conditionDetails: Table 9; [3H]CGS 21680, rat striatal membranes; read-out: Ki rA2A
Just so you know, pKi here is -log10 of the concentration in molar units; reply with that number alone.

Please review the entries below; each comes with its answer.
molecule: CCOC(=O)C1=C(C)NC(c2ccccc2)=C(C(=O)OCC)C1C (racemic)
pKi: 4.44
--
molecule: CCOC(=O)C1=C(C)NC(c2ccccc2)=C(C(=O)OCC)C1/C=C/c1ccccc1 (centres unmarked)
pKi: 5.32
--
molecule: CCOC(=O)C1=C(C)NC(C)=C(C(=O)OC)C1c1ccc2c(c1)OCO2 (racemic)
pKi: 5.28
--
molecule: CCOC(=O)C1=C(C)NC(C)=C(C(=O)OC)C1c1ccccc1C(F)(F)F (racemic)
pKi: 4.68
--
molecule: CCCC1C(C(=O)OC)=C(C)NC(C)=C1C(=O)OCC (racemic)
pKi: 4.94
--
molecule: CCOC(=O)C1=C(C)NC(C)=C(C(=O)OC)C1c1ccc(OC)cc1 (racemic)
pKi: 4.90
--
molecule: CCOC(=O)C1=C(C)NC(C)=C(C(=O)OCCCSc2ccccc2)C1C (centres unmarked)
pKi: 5.15
--
molecule: CCOC(=O)C1=C(C)NC(C)=C(C(=O)OCC)C1c1cccc([N+](=O)[O-])c1
pKi: 4.74
--
molecule: CCCCC1=C(C(=O)OCC)C(C)C(C(=O)OCC)=C(C)N1 (racemic)
pKi: 4.42

Now let's try a different one.
Prompt: Given CCOC(=O)C1=C(C)NC(C)=C(C(=O)OC)C1c1ccc([N+](=O)[O-])cc1 (racemic) , state its recorded pKi.
Completion: 4.45

###

The following compounds are shown together with reported pKi values.
targetUnderTest: A1 receptors (Rattus norvegicus, UniProt P25099)
Sequence (P25099 1-326): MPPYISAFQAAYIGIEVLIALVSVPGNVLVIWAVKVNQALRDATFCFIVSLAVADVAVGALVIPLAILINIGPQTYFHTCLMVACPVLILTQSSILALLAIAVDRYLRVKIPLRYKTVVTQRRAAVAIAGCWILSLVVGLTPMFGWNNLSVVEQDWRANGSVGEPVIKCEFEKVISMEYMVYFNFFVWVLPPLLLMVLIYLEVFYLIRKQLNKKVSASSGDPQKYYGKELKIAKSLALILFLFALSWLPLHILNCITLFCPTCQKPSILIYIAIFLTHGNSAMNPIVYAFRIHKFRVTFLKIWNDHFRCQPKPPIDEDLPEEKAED
assayOverview: biochemical
Type: binding
conditionDetails: Table 6; [3H]PIA, rat brain membranes; read-out: K2 (rA1)
pKi is a log-scale quantity: -log10 of the concentration expressed in molar.

compound: O=c1cc(-c2ccc(O)cc2)oc2cc(O)cc(O)c12 [Compound 28, apigenin, reference compound]
readoutLabel: pKi
readoutValue: 5.52
//
compound: COc1ccc(-c2cc(=O)c3ccc(O)cc3o2)cc1OC [Compound 27, reference compound]
readoutLabel: pKi
readoutValue: 4.73

Then there is this compound:
Prompt: Tell me the measured pKi of "CC(=O)Oc1cc(OC(C)=O)c2c(=O)c(OC(C)=O)c(-c3ccccc3)oc2c1" , please.
Completion: 4.94
